Target: FAP (Homo sapiens, UniProt Q12884)
Construct: The full length cDNAs for human DPP-VII, DPP-VIII, DPP-IX, and FAP were obtained from Open Biosystems; 6xHis (N); made in house
Sequence (Q12884 1-760): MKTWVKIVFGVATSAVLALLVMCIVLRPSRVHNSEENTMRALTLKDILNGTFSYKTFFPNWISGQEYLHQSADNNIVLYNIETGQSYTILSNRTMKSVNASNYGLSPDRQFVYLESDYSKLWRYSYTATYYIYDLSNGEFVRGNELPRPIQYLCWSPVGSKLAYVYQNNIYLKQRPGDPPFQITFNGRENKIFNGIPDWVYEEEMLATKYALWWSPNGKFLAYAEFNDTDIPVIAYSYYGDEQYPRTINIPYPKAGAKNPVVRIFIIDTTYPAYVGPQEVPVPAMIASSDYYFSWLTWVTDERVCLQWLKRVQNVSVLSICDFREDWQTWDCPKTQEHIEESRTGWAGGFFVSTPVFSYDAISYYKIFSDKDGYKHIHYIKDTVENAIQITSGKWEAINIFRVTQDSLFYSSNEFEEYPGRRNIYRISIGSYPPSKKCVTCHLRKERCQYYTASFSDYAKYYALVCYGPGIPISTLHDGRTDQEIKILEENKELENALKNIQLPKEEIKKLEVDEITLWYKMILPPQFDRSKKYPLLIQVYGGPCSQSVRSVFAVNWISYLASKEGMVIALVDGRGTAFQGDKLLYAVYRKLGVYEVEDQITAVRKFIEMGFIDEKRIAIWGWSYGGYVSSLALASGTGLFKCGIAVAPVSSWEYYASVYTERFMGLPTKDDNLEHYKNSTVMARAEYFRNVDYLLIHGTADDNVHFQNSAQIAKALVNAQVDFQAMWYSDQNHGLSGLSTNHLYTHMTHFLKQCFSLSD
Test: FAP IC50 assay (Ala-Pro AMC), selectivity versus DPP-IV
Assay type: biochemical
Details: IC50 of FAP divided by IC50 for DPP-IV
attribute_measured: Selectivity Ratios FAP

Please review the entries below; each comes with its answer.
molecule | val
N[C@@H]1CCN(S(=O)(=O)c2ccccc2)C[C@H]1C(=O)N1CCC[C@H]1B(O)O [Compound 6] | E (E > 100)
N[C@@H]1CCN(S(=O)(=O)c2ccccc2F)C[C@H]1C(=O)N1CCC[C@H]1B(O)O [Compound 10] | D (50 < D ≦ 100)
CC(C)S(=O)(=O)N1CC[C@@H](N)[C@H](C(=O)N2CCC[C@H]2B(O)O)C1 [Compound 18] | D (50 < D ≦ 100)
CS(=O)(=O)c1ccc(S(=O)(=O)N2CC[C@@H](N)[C@H](C(=O)N3CCC[C@H]3B(O)O)C2)cc1 [Compound 13] | E (E > 100)

// for each molecule in input: emit Selectivity Ratios FAP
1. Cl.O=C(CN[C@@H]1CCCNC1)N1CCC[C@H]1B(O)O [Compound 21, reference compound]
2. N[C@@H]1CCN(S(=O)(=O)c2ccc(-c3ccccc3)cc2)C[C@H]1C(=O)N1CCC[C@H]1B(O)O [Compound 16]

## Result
C (10 < C ≦ 50)
C (10 < C ≦ 50)

###

Biological target: DPP-VII (Homo sapiens, UniProt Q9UHL4)
Construct: The full length cDNAs for human DPP-VII, DPP-VIII, DPP-IX, and FAP were obtained from Open Biosystems; FLAG (N); made in house
Assay: DPP-VII IC50 assay (Lys-Pro AMC), selectivity versus DPP-IV
Format: biochemical
Details: IC50 of DPP-VII divided by IC50 for DPP-IV
attribute_measured: Selectivity Ratios DPP-VII

Please review the following examples before continuing.
structure_as_smiles | Selectivity Ratios DPP-VII
N[C@@H]1CCN(S(=O)(=O)c2ccc(F)cc2)C[C@H]1C(=O)N1CCC[C@H]1B(O)O | E (E > 100)
N[C@@H]1CCN(S(=O)(=O)c2ccccc2F)C[C@H]1C(=O)N1CCC[C@H]1B(O)O | E (E > 100)
N[C@@H]1CCN(S(=O)(=O)c2ccc(F)cc2F)C[C@H]1C(=O)N1CCC[C@H]1B(O)O | E (E > 100)
N[C@@H]1CCN(S(=O)(=O)c2cc(F)c(F)cc2F)C[C@H]1C(=O)N1CCC[C@H]1B(O)O | C (10 < C ≦ 50)

For the next question, use this compound.
The reported value for "CC(C)S(=O)(=O)N1CC[C@@H](N)[C@H](C(=O)N2CCC[C@H]2B(O)O)C1" in terms of Selectivity Ratios DPP-VII is C (10 < C ≦ 50)

###

Biological target: FAP (Homo sapiens, UniProt Q12884)
Construct: The full length cDNAs for human DPP-VII, DPP-VIII, DPP-IX, and FAP were obtained from Open Biosystems; 6xHis (N); made in house
Assay: FAP IC50 assay (Ala-Pro AMC), selectivity versus DPP-IV
Format: biochemical
Conditions: IC50 of FAP divided by IC50 for DPP-IV
attribute_measured: Selectivity Ratios FAP

Here's what some known entries look like.
compound | Selectivity Ratios FAP
CS(=O)(=O)N1CC[C@@H](N)[C@H](C(=O)N2CCC[C@H]2B(O)O)C1 [Compound 7] | E (E > 100)
N[C@@H]1CCN(S(=O)(=O)c2cc(F)c(F)cc2F)C[C@H]1C(=O)N1CCC[C@H]1B(O)O [Compound 12] | C (10 < C ≦ 50)
N[C@@H]1CCN(S(=O)(=O)c2cccc(-c3ccccc3)c2)C[C@H]1C(=O)N1CCC[C@H]1B(O)O [Compound 17] | C (10 < C ≦ 50)
N[C@@H]1CCN(S(=O)(=O)c2ccc(F)cc2F)C[C@H]1C(=O)N1CCC[C@H]1B(O)O [Compound 11] | E (E > 100)
N[C@@H]1CCN(S(=O)(=O)c2cccc(F)c2)C[C@H]1C(=O)N1CCC[C@H]1B(O)O [Compound 9] | D (50 < D ≦ 100)

Batch: Selectivity Ratios FAP for all items listed.
1. O=C(CNC1CCNCC1)N1CCC[C@H]1B(O)O [Compound 20, reference compound]
2. N[C@@H]1CCN(S(=O)(=O)c2ccc(F)cc2)C[C@H]1C(=O)N1CCC[C@H]1B(O)O [Compound 8]
3. N[C@@H]1CN(S(=O)(=O)c2cccc3ccccc23)CC[C@H]1C(=O)N1CCC[C@H]1B(O)O [Compound 14]

## Result
E (E > 100)
D (50 < D ≦ 100)
C (10 < C ≦ 50)
